- System: MDA-MB-468 breast
- Assay Protocol: NCI-60 one-dose screen, 48 h (100 = growth as untreated, 0 = no growth, -100 = all killed)
- Recorded Conditions: 10 µM unless noted
This is part of a sample that, as a whole, favours compounds with a hit. Of some 83,000 tested, about 20% had one in any assay. Active and inactive are the calls of the source. How the source made its calls: active means growth percent below 10; inactive means the rest.
Test Readout: growth

# lookup: growth of "COc1ccc2nccc(/C=C/c3ccnc4ccc(OC)cc34)c2c1"
110% (inactive)

Find the recorded growth belonging to "CCCC(CC)(C(=O)Nc1ccc2nc(C)cc(N)c2c1)C(=O)Nc1ccc2nc(C)cc(N)c2c1" and report it.
87% (inactive)

Can you share its growth? I mean this compound: "O=Nc1ccc(NC(=O)Nc2ccc([N+](=O)[O-])cc2)cc1"
96% (inactive)
